- measured on: T1, human GIP receptor (human, UniProt P48546 22-466)
- T1 sequence (looked up): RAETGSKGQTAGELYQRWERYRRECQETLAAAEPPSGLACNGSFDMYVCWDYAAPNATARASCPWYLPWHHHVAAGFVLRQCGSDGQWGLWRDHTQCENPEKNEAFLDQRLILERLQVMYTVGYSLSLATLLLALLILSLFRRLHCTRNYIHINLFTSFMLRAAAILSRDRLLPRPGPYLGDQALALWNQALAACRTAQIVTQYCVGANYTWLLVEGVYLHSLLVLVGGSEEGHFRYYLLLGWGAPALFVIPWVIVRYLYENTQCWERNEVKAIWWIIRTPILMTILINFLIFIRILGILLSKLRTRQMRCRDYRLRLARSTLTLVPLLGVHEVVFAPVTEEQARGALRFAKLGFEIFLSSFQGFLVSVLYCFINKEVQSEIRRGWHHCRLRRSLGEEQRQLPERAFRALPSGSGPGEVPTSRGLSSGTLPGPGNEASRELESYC
- test summary: cell-based or functional assay
Positions of bridges follow the written chain, without caps; N, C: chain ends. Non-standard residues stand in square brackets, D forms with d. No end group written: not given here. *: point of attachment. Acetyl(2-(4-imidazolyl)) = O=C(Cc1c[nH]cn1)*; Aib = CC(C)(N)C(=O)O
Label rule, in plain words: In vitro Activity Compared to Native Peptide (%) vs. GIP of 9% and up is true (1), under 9% is false (0).

>>> class_name("Y[Aib]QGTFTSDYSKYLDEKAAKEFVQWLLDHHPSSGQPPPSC (bridge 16-20) [triple agonist of SEQ ID NO: 75]")
"true (1)"
>>> class_name("Y[Aib]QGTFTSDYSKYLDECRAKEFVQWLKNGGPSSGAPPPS (bridge 16-20) [triple agonist of SEQ ID NO: 24]")
"false (0)"
>>> class_name("[Acetyl(2-(4-imidazolyl))][Aib]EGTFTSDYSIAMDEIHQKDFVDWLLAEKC (bridge 16-20) [triple agonist of SEQ ID NO: 91]")
"false (0)"
>>> class_name("H[Aib]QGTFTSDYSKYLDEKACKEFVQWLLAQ (bridge 16-20) [triple agonist of SEQ ID NO: 31]")
"false (0)"
>>> class_name("Y[Aib]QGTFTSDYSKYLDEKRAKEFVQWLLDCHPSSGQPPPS (bridge 16-20) [triple agonist of SEQ ID NO: 97]")
"false (0)"
>>> class_name("Y[Aib]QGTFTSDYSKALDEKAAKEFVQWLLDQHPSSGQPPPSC (bridge 16-20) [triple agonist of SEQ ID NO: 100]")
"true (1)"
